- TARGET OF ASSAY: Glycogen synthase kinase-3 beta (Homo sapiens) (UniProt P49841)
- Sequence (P49841 whole entry, looked up): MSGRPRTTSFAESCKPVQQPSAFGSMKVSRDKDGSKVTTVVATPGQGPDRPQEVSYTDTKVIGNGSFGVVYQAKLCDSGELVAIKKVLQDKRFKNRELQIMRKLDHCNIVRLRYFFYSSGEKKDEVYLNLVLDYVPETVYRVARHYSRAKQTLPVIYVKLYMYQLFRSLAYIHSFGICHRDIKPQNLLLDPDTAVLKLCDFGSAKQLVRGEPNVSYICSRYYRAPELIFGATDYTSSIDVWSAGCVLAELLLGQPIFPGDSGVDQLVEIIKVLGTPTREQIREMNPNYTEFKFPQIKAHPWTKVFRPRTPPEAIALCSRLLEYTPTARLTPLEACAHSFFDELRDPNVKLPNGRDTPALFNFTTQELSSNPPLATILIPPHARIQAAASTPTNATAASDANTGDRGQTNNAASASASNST
- EXPERIMENT: concentration-response blocking of human GSK3B – biochemical, luminescence, cell-free homogeneous, retest, dose response (AID 434954)
- ASSAY CONTEXT: recombinant GSK3beta, ADP-Glo luminescence, 60 min
Active and inactive are the calls of the source.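 Rule for the calls: active = IC50 at or below a set limit above the highest tested dose; inconclusive = flat curve with 30 to 70% inhibition, or poor fit; inactive = the rest.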
Give your call using only these classes: class 1 = active, class 0 = inactive

Example entries begin here.
COc1cc(C2C(C(=O)c3cccs3)=C(O)C(=O)N2CCN2CCOCC2)ccc1OCCC(C)C (stereo unspecified)    class 0
CCOC(=O)C1=C(C)Nc2ncnn2C1c1cc(OC)ccc1OC (stereo unspecified)    class 0
CC1(C)CC(=O)C2=C(C1)Nc1[nH]c(=S)[nH]c(=O)c1C2c1ccccc1 (stereo unspecified)    class 0
Cc1c(C=Nc2ccc(S(=O)(=O)CCO)cc2)c(O)[nH]c(=O)c1C#N    class 0
CCCC1=C(C(=O)OCC)C(c2cccs2)n2ncnc2N1 (stereo unspecified)    class 1

Data request: Please indicate how the test categorized CCc1ccccc1N1C(=O)CC(N2CCc3ccccc32)C1=O (stereo unspecified) .
Data returned: class 0

Data request: Please indicate how the test categorized CCOc1ccc(/C=N/Nc2ccccn2)cc1OC .
Data returned: class 0

Data request: Please indicate how the test categorized CCCC1=C(C(=O)OCC)C(c2sccc2C)n2ncnc2N1 (stereo unspecified) .
Data returned: class 0

Data request: Please indicate how the test categorized Cc1[nH]nc2c1C(c1cccs1)C1=C(CC(C)(C)CC1=O)N2 (stereo unspecified) .
Data returned: class 1

Data request: Please indicate how the test categorized CCCCCOC(=O)C1=C(C)Nc2ncnn2C1c1cccs1 (stereo unspecified) .
Data returned: class 0

Data request: Please indicate how the test categorized CCOC(=O)C1=C(C)Nc2ncnn2C1c1c[nH]c2ccccc12 (stereo unspecified) .
Data returned: class 1

Reference for the values: PubChem BioAssay AID434954
